This collection of values is drawn from patent US9828333B2.

- PROTOCOL_TEXT: physchem
- Assay type: physicochemical
- CONDITION_SET: pH 7.4, aqueous buffer, thermodynamic from solid
OBSERVATION_TYPE: solubility at 30 min (µg/mL)
Supply the numeric figure in µg/mL, leaving out any unit text.

Query string: Determine from records and report solubility at 30 min for CCOC(=O)C1=C[C@@H](OC(CC)CC)[C@H](NC(C)=O)[C@@H](N/C(C)=N/O)C1
Result string: 8600

----------
- PROTOCOL_TEXT: in vivo
- CONDITION_SET: Sprague Dawley, rat, in vivo, iv, 10 mg/kg
Assign Bioavailability to each entry below.
Supply the numeric figure in %, leaving out any unit text.

Query string: Determine from records and report Bioavailability for CCC(CC)O[C@@H]1C=C(C(=O)O)C[C@H](NC(C)=N)[C@H]1NC(C)=O
Result string: 100

Query string: Determine from records and report Bioavailability for CCC(CC)O[C@@H]1C=C(C(=O)O)C[C@H](NC(=N)N)[C@H]1NC(C)=O
Result string: 100
